Form field: inhibition (one value per entry).
TARGET UNDER TEST: serotonin 1A receptors ([3H]8-OH-DPAT binding, hippocampus membrane preparation) (Rattus norvegicus, UniProt P19327)
Construct: 146 μl of the hippocampus membrane preparation (80 μg/tube in terms of protein); from tissue; host or cells: male rat hippocampus membrane preparation
Sequence (P19327 whole entry): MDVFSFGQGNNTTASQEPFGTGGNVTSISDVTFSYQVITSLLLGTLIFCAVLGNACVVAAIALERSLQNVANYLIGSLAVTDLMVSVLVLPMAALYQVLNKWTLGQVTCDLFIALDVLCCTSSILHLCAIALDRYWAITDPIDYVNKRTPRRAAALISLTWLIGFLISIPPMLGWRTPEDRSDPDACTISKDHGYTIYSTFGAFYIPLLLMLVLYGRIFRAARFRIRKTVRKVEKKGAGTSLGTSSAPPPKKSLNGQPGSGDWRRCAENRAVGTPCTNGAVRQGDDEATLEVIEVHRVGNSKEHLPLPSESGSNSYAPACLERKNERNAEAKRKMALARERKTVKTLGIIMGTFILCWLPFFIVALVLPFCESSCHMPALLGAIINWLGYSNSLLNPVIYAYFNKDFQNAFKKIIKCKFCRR
TEST METHOD NOTES: [3H]8-OH-DPAT binding test (Test Example 2)
TEST CONTEXT: 2 nM [3H]8-OH-DPAT, test agent concentration not given, read-out: Rate of inhibition of [^3H] 8-OH-DPAT binding (%)

| MOLECULE | inhibition, % |
| --- | --- |
| COc1ccc(Br)c(CC2CCN(CCc3ccccc3)CC2)c1 | 96 |
| COc1ccc(Cl)c(CC2CCN(CCCN3C(=O)c4ccccc4C3=O)CC2)c1 | 72 |
| COc1ccc(Br)c(CC2CCN(CCc3cccnc3)CC2)c1 | 94 |
| NC(=O)c1cccc(CCN2CCC(Cc3ccccc3Br)CC2)c1 | 47 |
| COc1ccc(Br)c(CC2CCN(Cc3cccc(C(=O)NCc4ccccc4)c3)CC2)c1 | 98 |
| CCOc1ccc(Br)c(CC2CCN(CCc3ccccc3Cl)CC2)c1 | 74 |
| COc1ccc(Br)c(CC2CCN(CCc3cccc4ccccc34)CC2)c1 | 92 |

###

TARGET UNDER TEST: human 5-HT1A receptors (human 5-HT1A/CHO membrane preparation) (Homo sapiens, UniProt P08908)
Construct: expressed in transfected cells; host or cells: CHO cells (human 5-HT1A/CHO), Geneticin-selected
Sequence (P08908 1-422): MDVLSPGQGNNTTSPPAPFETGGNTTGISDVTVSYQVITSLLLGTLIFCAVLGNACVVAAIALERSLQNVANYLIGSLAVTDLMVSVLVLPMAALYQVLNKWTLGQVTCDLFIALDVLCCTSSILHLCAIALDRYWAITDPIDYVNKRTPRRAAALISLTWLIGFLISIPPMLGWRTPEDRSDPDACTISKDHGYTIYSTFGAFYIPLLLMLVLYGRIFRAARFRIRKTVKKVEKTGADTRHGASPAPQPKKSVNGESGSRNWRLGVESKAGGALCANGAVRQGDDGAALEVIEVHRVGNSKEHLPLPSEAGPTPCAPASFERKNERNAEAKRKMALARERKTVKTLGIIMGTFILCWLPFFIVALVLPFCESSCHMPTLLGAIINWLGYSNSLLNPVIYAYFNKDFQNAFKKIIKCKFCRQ
TEST METHOD NOTES: 5-HT1A receptor actuation test, [35S]GTPγS binding (Test Example 3)
Format: biochemical
TEST CONTEXT: 10^-5 M test substance; rate of increase in [35S]GTPγS binding, increase due to 10 μM 5-HT taken as 100%
ENDPOINT: 5-HT14 receptor actuating activity (%)

| MOLECULE | VALUE MEASURED |
| --- | --- |
| COc1ccc(Br)c(CC2CCN(CCc3cccnc3)CC2)c1 | 52 |
| COc1ccc(Br)c(CC2CCN(CCc3ccccc3)CC2)c1 | 32 |
| CCOc1ccc(Br)c(CC2CCN(CCc3ccccc3Cl)CC2)c1 | 48 |
| COc1ccc(Cl)c(CC2CCN(CCCN3C(=O)c4ccccc4C3=O)CC2)c1 | 49 |
| COc1ccc(Br)c(CC2CCN(Cc3cccc(C(=O)NCc4ccccc4)c3)CC2)c1 | 19 |
| NC(=O)c1cccc(CCN2CCC(Cc3ccccc3Br)CC2)c1 | 48 |
